Taken from ChEMBL document CHEMBL5058577.

For each of the molecules below, state its Population Mitochondria Different-Phenotype (%).
# Test system: U2OS
# PROTOCOL_NOTES: Multiplex assay against U2OS
# Format: toxicity, cell-based
# TEST_PARAMETERS: human, 48 h, 1 µM, compound concentration 1 uM, replicate 1
# number then unit; no other words

Can you look up the measured Population Mitochondria Different-Phenotype (%) of Cc1c(CC(=O)O)c2cccnc2n1Cc1ccc(S(C)(=O)=O)cc1C(F)(F)F [FEVIPIPRANT] for me? 3%

Can you look up the measured Population Mitochondria Different-Phenotype (%) of `COc1ccccc1N1CCN(C[C@@H](C(=O)NC(C)(C)C)c2ccccc2)CC1.Cl.Cl` for me? 1%

Can you look up the measured Population Mitochondria Different-Phenotype (%) of `CN1CCN(c2cc(-c3ccccc3)nc(N)n2)CC1` for me? 1%

Can you look up the measured Population Mitochondria Different-Phenotype (%) of `Cc1cccc(NC(=O)CN2CCC(c3ccccn3)CC2)c1.Cl.Cl` for me? 3%

Can you look up the measured Population Mitochondria Different-Phenotype (%) of `CC(/C=C1\SC(=S)N(CCCC(=O)Nc2ccc(C(=O)O)c(O)c2)C1=O)=C\c1ccccc1` for me? 1%

Can you look up the measured Population Mitochondria Different-Phenotype (%) of CC(C)(C)c1cc(NC(=O)Nc2ccc(-c3cn4c(n3)sc3cc(OCCN5CCOCC5)ccc34)cc2)no1 [QUIZARTINIB] for me? 2%

Can you look up the measured Population Mitochondria Different-Phenotype (%) of `C[C@H](N)COC(=O)[C@@H](CCCCN)NC(=O)Cc1c(-c2ccc3ccccc3c2)[nH]c2c1ccc1ccccc12` for me? 2%

Can you look up the measured Population Mitochondria Different-Phenotype (%) of `COc1cccc2c1c(NS(=O)(=O)c1ccc(Cl)s1)nn2Cc1cccc(CNC(=O)C(C)(C)O)c1` for me? 1%

Can you look up the measured Population Mitochondria Different-Phenotype (%) of Cl.N=C(N)NC(=O)Cc1c(Cl)cccc1Cl [GUANFACINE HYDROCHLORIDE] for me? 3%

Can you look up the measured Population Mitochondria Different-Phenotype (%) of CC[C@@H](C)Nc1nc(C)nc2c(-c3ccc(OC)nc3C)c(C)nn12 [PEXACERFONT] for me? 1%

Can you look up the measured Population Mitochondria Different-Phenotype (%) of `NCCc1cn(S(=O)(=O)c2c(Cl)nc3sccn23)c2ccccc12.O=C(O)C(=O)O` for me? 4%

Can you look up the measured Population Mitochondria Different-Phenotype (%) of Br.CS(=O)(=O)Nc1c(O)ccc2c1CCCC2C1=NCCN1 (stereo not drawn) for me? 2%

Can you look up the measured Population Mitochondria Different-Phenotype (%) of `CCc1cc2cc(NS(=O)(=O)c3ccc(C#N)cc3)ccc2n(CC)c1=O` for me? 3%

Can you look up the measured Population Mitochondria Different-Phenotype (%) of Cc1sc2c(c1C)C(c1ccc(Cl)cc1)=N[C@@H](CC(=O)NCCCCCCCCNC(=O)COc1cccc3c1C(=O)N(C1CCC(=O)NC1=O)C3=O)c1nnc(C)n1-2 (stereo partly drawn) for me? 1%

Can you look up the measured Population Mitochondria Different-Phenotype (%) of CC(=O)Nc1cccc2c1c(Sc1ccc(Cl)cc1)c(C)n2CC(=O)O [AZD1981] for me? 2%

Can you look up the measured Population Mitochondria Different-Phenotype (%) of CN[C@@H](C)C(=O)N[C@H](C(=O)N1CCC[C@H]1C(=O)Nc1snnc1-c1ccccc1)C1CCCCC1 [GDC-0152] for me? 12%

Can you look up the measured Population Mitochondria Different-Phenotype (%) of O=C(NCCN1CCC(n2c(=O)[nH]c3cc(Cl)ccc32)CC1)c1ccc(F)cc1 [HALOPEMIDE] for me? 2%

Can you look up the measured Population Mitochondria Different-Phenotype (%) of `CN(C)C(=O)Cn1cc(-c2ccc(-c3cncc4ccccc34)cc2)cn1` for me? 3%
